Sourced from paper PMC6278537

assay: Stability of analytes in rat plasma under various storage conditions; format: in vitro ADME; settings: 12 h after sample preparation at 4 °C, medium QC spiked concentration
quantity-measured: Stability Post-Preparation (% RE)

# annotated cases, reported Stability Post-Preparation shown
CC1=C2C3=CCC4C5(C)CCC(OC6OCC(O)C(O)C6O)C(C)(C)C5CCC4(C)C3(C)CCC2(C(=O)OC2OC(CO)C(O)C(O)C2O)CCC1C (stereo not shown) : −2.48
CC1CCC2(C(=O)O)CCC3(C)C(=CCC4C5(C)C(O)C(O)C(O)C(C)(C)C5CCC43C)C2C1(C)O (stereo not drawn) [V, 1β-hydroxyeuscaphic acid] : 5.23

I = CC1CCC2(C(=O)OC3OC(CO)C(O)C(O)C3O)CCC3(C)C(=CCC4C5(C)CCC(O)C(C)(C)C5CCC43C)C2C1(C)O (stereo not shown)
II = C=C1[C@H]2C3=CC[C@@H]4[C@@]5(C)C[C@@H](O)[C@@H](O)C(C)(C)[C@@H]5CC[C@@]4(C)[C@]3(C)CC[C@@]2(C(=O)O[C@@H]2O[C@H](CO)[C@@H](O)[C@H](O)[C@H]2O)CC[C@H]1C [VI, alpinoside]
Looking at recorded values for Stability Post-Preparation, does I or II come in lower? I would appreciate it if you answered with the label of your choice.
I
(I: 4.11 % RE, II: 9.78 % RE)
